targetOrSystem: Muscarinic acetylcholine receptor (Homo sapiens) (UniProt P20309+P08173+P11229+P08172+P08912);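 also: blockade of Ca2+-dependent contraction driven by muscarinic receptors in longitudinal smooth muscle strips of guinea pig ileum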
protocolConditions: Cavia porcellus
Description: Inhibition of muscarinic receptor mediated [Ca2+] dependent contraction of guinea pig ileal longitudinal smooth muscle.
reportedEndpoint: ID50 (µM)
Give the value, in units of µM, as a plain number.

COC(=O)C1=C(C)N=C(C)/C(=C(/O)OC)C1C1=CCN(C(=O)OC)C=C1 (stereo not drawn) = 7.47
CO/C(O)=C1\C(C)=NC(C)=C(C(=O)OC(C)C)C1C1=CC=CN(C(=O)OC(C)(C)C)C1 (stereo not drawn) = 0.237

# context switch: different compound, same ID50
stdin: Field request: ID50 | item: CO/C(O)=C1\C(C)=NC(C)=C(C(=O)OCC(C)C)C1C1=CC=CN(C(=O)Oc2ccccc2)C1 (stereo not drawn)
stdout: 0.045
